System: mice
measurement_description: Acute toxicity (DL0, oral)
Type: in vivo, mouse
Parameters: unit not given here
Structures can show the parent of a compound that is named as a salt.
quantity_kind: DL0 (maximum dose which did not cause any deaths after 8 days)

The cases that follow already have their DL0 (maximum dose which did not cause any deaths after 8 days) on record.
Cc1ccc(OCC(O)CN2CCC(c3c[nH]c4ccccc34)CC2)cc1 (centres unmarked) [Example 21, hydrochloride]
> 100
Cc1cccc(OCC(O)CN2CCC(c3c[nH]c4ccccc34)CC2)c1 (centres unmarked) [Example 18, hydrochloride]
> 100
COc1ccc(OCC(O)CN2CCC(c3c[nH]c4ccccc34)CC2)cc1 (centres unmarked) [Example 8, hydrochloride]
> 200

// sample COc1ccccc1OCC(O)CN1CCC(c2c[nH]c3ccccc23)CC1 (centres unmarked) [Example 14, hydrochloride] , its DL0 (maximum dose which did not cause any deaths after 8 days) was > 100

// sample N#Cc1ccccc1OCC(O)CN1CCC(c2c[nH]c3ccccc23)CC1 (centres unmarked) [Example 4, hydrochloride] , its DL0 (maximum dose which did not cause any deaths after 8 days) was > 100

// sample OC(COc1ccccc1F)CN1CCC(c2c[nH]c3ccccc23)CC1 (centres unmarked) [Example 12, hydrochloride] , its DL0 (maximum dose which did not cause any deaths after 8 days) was 80

// sample C=CCc1ccccc1OCC(O)CN1CCC(c2c[nH]c3ccccc23)CC1 (centres unmarked) [Example 7, hydrochloride] , its DL0 (maximum dose which did not cause any deaths after 8 days) was > 200

// sample O=[N+]([O-])c1ccccc1OCC(O)CN1CCC(c2c[nH]c3ccccc23)CC1 (centres unmarked) [Example 11, hydrochloride] , its DL0 (maximum dose which did not cause any deaths after 8 days) was 100

----------
System: α1 adrenergic receptors
measurement_description: Affinity for α1 adrenergic receptors (3H prazosine displacement, rat brain)
Assay type: binding
details: relative to phentolamine (ARL=100×(CB/CX)), 25° C., pH 7.7
Where a name gives a salt, the structure may show the parent alone.
# % Arl (relative affinity for α1 adrenergic receptors) listing for each entry below
Field: value (include unit after the number)

The cases that follow already have their % Arl (relative affinity for α1 adrenergic receptors) on record.
Cc1ccccc1OCC(O)CN1CCC(c2c[nH]c3ccccc23)CC1 (centres unmarked) [Example 9, hydrochloride]
92%
CC(=O)c1ccccc1OCC(O)CN1CCC(c2c[nH]c3ccccc23)CC1 (centres unmarked) [Example 17, hydrochloride]
159%
C=CCc1ccccc1OCC(O)CN1CCC(c2c[nH]c3ccccc23)CC1 (centres unmarked) [Example 7, hydrochloride]
100%
OC(COc1ccccc1F)CN1CCC(c2c[nH]c3ccccc23)CC1 (centres unmarked) [Example 12, hydrochloride]
233%
OC(COc1cccc(Cl)c1)CN1CCC(c2c[nH]c3ccccc23)CC1 (centres unmarked) [Example 22, hydrochloride]
70%
C=CCOc1ccccc1OCC(O)CN1CCC(c2c[nH]c3ccccc23)CC1 (centres unmarked) [Example 1, hydrochloride]
247%
N#Cc1ccccc1OCC(O)CN1CCC(c2c[nH]c3ccccc23)CC1 (centres unmarked) [Example 4, hydrochloride]
145%

Query compound follows.
// sample COc1ccc(OCC(O)CN2CCC(c3c[nH]c4ccccc34)CC2)cc1 (centres unmarked) [Example 8, hydrochloride] , its % Arl (relative affinity for α1 adrenergic receptors) was 222%

----------
target_desc: β1 adrenergic receptors (Rattus norvegicus)
Construct: 10 cortexes removed from the brains of male rats weighing an average of 150 g; from tissue; host or cells: cerebral cortex of male rats (membranes)
Sequence (P18090 whole entry): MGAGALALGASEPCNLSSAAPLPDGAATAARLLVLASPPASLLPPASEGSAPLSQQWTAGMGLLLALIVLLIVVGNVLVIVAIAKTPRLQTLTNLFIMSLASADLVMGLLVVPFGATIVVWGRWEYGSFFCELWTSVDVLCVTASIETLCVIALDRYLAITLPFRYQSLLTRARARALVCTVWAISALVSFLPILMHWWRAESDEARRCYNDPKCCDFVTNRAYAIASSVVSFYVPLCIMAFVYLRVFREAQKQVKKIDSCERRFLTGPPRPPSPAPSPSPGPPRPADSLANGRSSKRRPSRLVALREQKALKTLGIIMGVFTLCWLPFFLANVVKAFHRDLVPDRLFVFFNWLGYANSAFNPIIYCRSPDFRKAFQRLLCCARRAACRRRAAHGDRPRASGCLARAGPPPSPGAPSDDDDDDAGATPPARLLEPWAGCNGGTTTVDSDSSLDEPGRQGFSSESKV
measurement_description: Affinity for β1 adrenergic receptors (3H dihydroalprenolol displacement, rat brain cortex)
Type: binding
details: relative to propranolol, 37° C., pH 7.7
Counter-ions that a name gives are not always drawn.
# ARL in % (relative affinity for β1 adrenergic receptors) listing for each entry below
Quick note: give the figure in %, leave out the unit.

COC(=O)c1ccccc1OCC(O)CN1CCC(c2c[nH]c3ccccc23)CC1 (stereo not shown) [Example 6, hydrochloride]
1.3
OC(COc1ccccc1Cl)CN1CCC(c2c[nH]c3ccccc23)CC1 (stereo not shown) [Example 10, hydrochloride]
1.95
Oc1ccccc1OCC(O)CN1CCC(c2c[nH]c3ccccc23)CC1 (stereo not shown) [Example 13, hydrochloride]
1.1

// sample N#Cc1ccccc1OCC(O)CN1CCC(c2c[nH]c3ccccc23)CC1 (stereo not shown) [Example 4, hydrochloride] , its ARL in % (relative affinity for β1 adrenergic receptors) was 13.3

# credit: patent US4530932A
